protocol.summary: clearance of mutant huntingtin inclusions, primary screen, imaging, HeLa Exon1htt(103Q)mCFP, confocal imaging (AID 853);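 also: cells exposed to compound for three days before fixation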
measurement.setup: aggregate imaging, at 1.5 µM; measured here: aggregate grain fluorescence fraction, stronger effect = lower value
Out of some 47,000 compounds screened, about 200 (0.43%) were called active. Roughly 1% stayed inconclusive and do not appear here. The sample holds actives, similar compounds and a random draw of the others, so the mix is not that of the screen.
quantity.name: fraction fluorescence in grains
One number for each entry.

Field: example entries. Status: answers known.
INSERT INTO results (compound, obs_value) VALUES
  ('Clc1ccccc1-c1cc(COc2ccc3ccccc3c2)no1', 33.9),
  ('CNc1nc(SC)nc(N(C#N)CC(=O)OC)n1', 30.5),
  ('O=C(NCCCCc1ccccc1)C1CC(c2ccc([N+](=O)[O-])cc2)=NO1 (configuration not stated)', 23.6),
  ('COc1ccc(-n2c(C)csc2=S)cc1', 15.4),
  ('COc1ccc(-n2c(SCC(=O)NCc3cccs3)nnc2-c2ccoc2C)cc1', 22.6);

Each of the following entries comes with a recorded value; kindly state fraction fluorescence in grains for each.
1. ONC(=Nc1ccc(Cl)cc1)c1ccccc1Cl
2. Cn1c(CO)cnc1SCc1ccccc1
3. Cc1cc(C)cc(NC(=O)c2cccc(NC(=O)C3C4CC5OC(=O)C3C5C4)c2)c1 (configuration not stated)
4. COc1ccc(Cl)cc1C(=O)NCC#N

[37.5, 10.9, 31, 28.6]

Each of the following entries comes with a recorded value; kindly state fraction fluorescence in grains for each.
1. COc1ccc(OC)c(/C=N/NC(=O)CSc2nnc(C)n2-c2ccccc2)c1
2. Cc1nnc(SCC(=O)N2CCN(c3ccccc3)CC2)n1-c1ccccc1
3. O=C(Nc1cccc(NC(=O)c2ccco2)c1)c1cnccn1

1: 32.4; 2: 45.5; 3: 17.1

* * *

protocol.summary: clearance of mutant huntingtin inclusions, primary screen, imaging, HeLa Exon1htt(103Q)mCFP, confocal imaging (AID 853);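 also: cells exposed to compound for three days before fixation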
measurement.setup: aggregate imaging, at 1.5 µM; measured here: aggregate grain fluorescence fraction, stronger effect = lower value
In all, about 47,000 compounds went through this assay and about 200 (0.43%) were called active. Roughly 1% stayed inconclusive and do not appear here. For the sample, actives were picked, then their nearest neighbours and some compounds at random.
Please respond with reported fraction fluorescence in grains for every item in the list.
Give bare numbers.

Field: example entries. Status: answers known.
INSERT INTO results (compound, quantity_name, obs_value) VALUES
  ('CC(=O)Nc1ccccc1C(=O)C(=O)Nc1ccc(F)cc1', 'fraction fluorescence in grains', 57.6),
  ('CCOC(=O)Cc1csc(NC(=O)CSc2nnc(-c3cccnc3)n2Cc2ccco2)n1', 'fraction fluorescence in grains', 20.9),
  ('CCSC(C)CC1C/C(=N/O)c2c(C)noc2C1 (stereo not given)', 'fraction fluorescence in grains', 43.5),
  ('Cc1cc(-c2ccccc2)nc(N2CCC(C(=O)NC34CC5CC(CC(C5)C3)C4)CC2)n1', 'fraction fluorescence in grains', 31);

// next entry
Please look up its fraction fluorescence in grains: CCCc1nc2ccccc2c(C(=O)OCc2nnc(-c3cc(OC)c(OC)c(OC)c3)o2)c1CC
19.4

* * *

protocol.summary: clearance of mutant huntingtin inclusions, primary screen, imaging, HeLa Exon1htt(103Q)mCFP, confocal imaging (AID 853);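 also: cells exposed to compound for three days before fixation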
measurement.setup: aggregate imaging, at 1.5 µM, zero = plate's median compound well
In all, about 47,000 compounds went through this assay and about 200 (0.43%) were called active. Not shown: some 1% with an inconclusive outcome.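 How the source made its calls: active means inhibition of aggregate fluorescence above about 70%, also judged a hit by eye on the cell image (limit read from the data, passing the limit was not always enough); inconclusive means no rule stated for this call; inactive means not judged a hit on image review.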 The list comes from a sample in which actives are over-represented; it also holds close analogues and randomly drawn compounds.
I would appreciate it if you answered using one of these outcomes: T = active, F = inactive

Test call for this compound, please: C[C@H](NC(=O)NCCc1ccccc1)C(=O)O
T

Test call for this compound, please: COC(=O)C(C)Oc1ccc2c(-c3cccc([N+](=O)[O-])c3)cc(=O)oc2c1 (centres undefined)
F

Test call for this compound, please: O=C(NC1CCc2ccccc21)C12CN(Cc3ccccc3)CC1C(c1cccc([N+](=O)[O-])c1)=NO2 (centres undefined)
F

Test call for this compound, please: CCOc1ccc(NC(=O)Nc2cc(C)on2)cc1
F

Test call for this compound, please: CCC(c1nnnn1Cc1ccco1)N(CCc1ccccc1)Cc1cc2ccc(OC)cc2[nH]c1=O (centres undefined)
F

Test call for this compound, please: CCCc1cc(=O)[nH]c(SCC(=O)OCc2ccccc2)n1
F

Test call for this compound, please: Cc1cc(C)cc(OCc2nnc(SCC(=O)Nc3ccccc3)o2)c1
F

Test call for this compound, please: COc1ccccc1-c1nnc(SCC(=O)Nc2cc(C)on2)o1
F

* * *

protocol.summary: clearance of mutant huntingtin inclusions, primary screen, imaging, HeLa Exon1htt(103Q)mCFP, confocal imaging (AID 853);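 also: cells exposed to compound for three days before fixation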
measurement.setup: aggregate imaging, at 1.5 µM; stronger effect = higher value, zero = plate's median compound well
About 200 (0.43%) of roughly 47,000 compounds were called active. Roughly 1% stayed inconclusive and do not appear here. This excerpt belongs to a sample that is enriched for actives.
quantity.name: inhibition (%)
Numbers only, in %.

INSERT INTO measurements (smiles_repr, obs_value) VALUES
  ('O=C(c1ccc(F)cc1)c1c[nH]c(C(=O)NCc2cccnc2)c1', 1),
  ('O=S(=O)(NCc1ccccn1)c1ccc(F)cc1', 28.4);

Please look up its inhibition: COc1ccc(C(=O)NCCc2ccc(S(N)(=O)=O)cc2)cc1OC
-18.4

* * *

protocol.summary: clearance of mutant huntingtin inclusions, primary screen, imaging, HeLa Exon1htt(103Q)mCFP, confocal imaging (AID 853);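 also: cells exposed to compound for three days before fixation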
measurement.setup: aggregate imaging, at 1.5 µM; measured here: aggregate grain fluorescence fraction, stronger effect = lower value
Among all 47,000 compounds or so, about 200 (0.43%) were called active. Not shown: some 1% with an inconclusive outcome. What follows is part of a selection rich in actives, with near analogues and random picks from the rest.
quantity.name: fraction fluorescence in grains
Give bare numbers.

Field: example entries. Status: answers known.
INSERT INTO results (compound, quantity_name, obs_value) VALUES
  ('COc1ccc2c3c(c(=O)oc2c1OCC(=O)C(C)(C)C)CCCC3', 'fraction fluorescence in grains', 20.5),
  ('COc1ccc(CNC(=O)CCn2cccc2)cc1', 'fraction fluorescence in grains', 29.6);

// next entry
Please look up its fraction fluorescence in grains: CCOC(=O)C(C)Oc1cccc2c(=O)n(CC(=O)N3CCc4ccccc43)ccc12 (stereo not drawn)
44.7

* * *

protocol.summary: clearance of mutant huntingtin inclusions, primary screen, imaging, HeLa Exon1htt(103Q)mCFP, confocal imaging (AID 853);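 also: cells exposed to compound for three days before fixation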
measurement.setup: aggregate imaging, at 1.5 µM; measured here: aggregate grain fluorescence fraction, stronger effect = lower value
The campaign covered roughly 47,000 compounds. About 200 (0.43%) were called active. Inconclusive results (about 1%) are left out. This is one part of a sample in which actives are shown more often than they occur.
quantity.name: fraction fluorescence in grains
Give bare numbers.

INSERT INTO assay_data (molecule, quantity_name, obs_value) VALUES
  ('COC(=O)C1C(=O)NCC1c1ccc(OC)cc1 (stereo not given)', 'fraction fluorescence in grains', 12),
  ('C=CCNC(=S)NNc1ncnc2sc3c(c12)CC(C)(C)OC3', 'fraction fluorescence in grains', 40.7),
  ('CC1=C(C(N)=O)C(c2sccc2C)n2nnnc2N1 (stereo not given)', 'fraction fluorescence in grains', 60.2);

Each of the following entries comes with a recorded value; kindly state fraction fluorescence in grains for each.
1. CCS(=O)(=O)n1nc(-c2ccccc2)nc1SCc1ccccc1
2. COC(=O)c1nc2ccccc2s1

1: 24.1; 2: 22.8

* * *

Please respond with reported inhibition for every item in the list.
protocol.summary: clearance of mutant huntingtin inclusions, primary screen, imaging, HeLa Exon1htt(103Q)mCFP, confocal imaging (AID 853);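 also: cells exposed to compound for three days before fixation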
measurement.setup: aggregate imaging, at 1.5 µM; stronger effect = higher value, zero = plate's median compound well
The whole screen tested about 47,000 compounds, of which about 200 (0.43%) were called active. About 1% were inconclusive and are not listed. The list comes from a sample in which actives are over-represented; it also holds close analogues and randomly drawn compounds.
Numbers only, in %.

Field: example entries. Status: answers known.
INSERT INTO results (molecule, unit_text, obs_value) VALUES
  ('COc1ccc(-n2c(C)csc2=S)cc1', '%', 22.6),
  ('CCS(=O)(=O)N1CCN(C(=O)c2cccs2)CC1', '%', 27.2),
  ('C/C(=C\C(=O)c1ccc(Br)cc1)N1CCCCC1', '%', 28.3),
  ('CC(=O)Nc1ccccc1C(=O)C(=O)Nc1ccc(F)cc1', '%', -48.2);

Each of the following entries comes with a recorded value; kindly state inhibition for each.
1. Cc1cc(Oc2ccccc2)nc(N2CCOCC2)n1
2. Cc1nnc(OCC(=O)NCCC2=CCCCC2)c2ccccc12
3. Cc1ccc(-c2cnc(NC(=O)CCC(=O)N(C)Cc3ccccc3)n2C)cc1

1. 5.3
2. 19
3. -11.1

Each of the following entries comes with a recorded value; kindly state inhibition for each.
1. CCCCCN1CC(O)=C(c2nc(-c3ccc(Cl)cc3)cs2)C1=N
2. CCCCOC(=O)Cn1c(=O)n(CC(=O)OCCCC)c2cc(C)ccc21
3. COc1ccc(N(CC(=O)NC2CCCCC2)C(=O)CNC(=O)c2ccco2)c(OC)c1
4. CCN(CC)CCN1C(=O)C(=O)/C(=C(/O)c2cnn(-c3ccccc3)c2C)C1c1cccs1 (stereo not given)
5. Cc1ccc(-c2nn(-c3ccccc3)cc2/C=N/NC(=O)c2ccc3c(c2)OCO3)cc1
6. COCCOC(=O)C1=C(C)NC(=O)NC1c1ccc(Cl)cc1 (stereo not given)

1: 8.6; 2: -6.9; 3: -26.1; 4: -25.7; 5: -12.7; 6: 33.5

Each of the following entries comes with a recorded value; kindly state inhibition for each.
1. Fc1cnc(N2CCOCC2)nc1NCc1ccccc1
2. COc1ccc(C2CC(=O)C=C(NCC3CCCO3)C2)cc1 (stereo not given)

[35.6, 30.2]

Taken from PubChem BioAssay AID853.
